measurement target: TXA2 receptor (Homo sapiens)
Construct: human platelet membrane fraction was prepared
Sequence (P21731 whole entry): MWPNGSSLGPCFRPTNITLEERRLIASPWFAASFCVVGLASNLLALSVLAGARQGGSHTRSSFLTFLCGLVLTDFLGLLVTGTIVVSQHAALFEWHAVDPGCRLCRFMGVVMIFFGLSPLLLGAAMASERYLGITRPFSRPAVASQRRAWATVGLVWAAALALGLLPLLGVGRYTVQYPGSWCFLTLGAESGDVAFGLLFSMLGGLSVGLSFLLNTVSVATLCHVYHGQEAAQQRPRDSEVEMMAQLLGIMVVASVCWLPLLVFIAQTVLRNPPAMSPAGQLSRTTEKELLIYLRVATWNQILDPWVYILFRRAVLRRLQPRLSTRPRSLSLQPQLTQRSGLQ
protocol details: TXA2 receptor binding assay
protocol conditions: human platelet membrane fraction; displacement of 2 nM [3H](+)-S-145 sodium salt; 90 min at room temperature; read-out: inhibition activity IC50
endpoint name: pIC50
Answers are plain numbers, as −log10 of the molar value.

COC(=O)CCC/C=C\C[C@H]1[C@@H]2CC[C@@H](C2)[C@@H]1NC(=O)c1cccc2ccsc12 [Compound 2]
5.42

Next compound, please.
INPUT: Answer with pIC50 of O=C(O)CCC/C=C\C[C@H]1[C@@H]2CC[C@@H](C2)[C@@H]1NC(=O)c1csc2ccc(O)cc12 [Compound 1] measured for TXA2 receptor (Homo sapiens).
OUTPUT: 6.82
